experimental.system: Estrogen receptor (Homo sapiens)
protocol.details: qHTS assay for small molecule antagonists of estrogen receptor alpha signaling (AID 588513)
measurement.setup: ER-alpha-UAS-bla HEK293, beta-lactamase ratio, antagonist mode; series mostly up to 76.9 µM
Activity calls are given as the source filed them. Calls come from the whole dose curve; as a rule, active = well fitted curve in the direction sought with a large enough effect in the signal ratio, with a control signal flat (not every such curve was filed as active); inconclusive = small, poorly fitted or top-dose-only effect, or effect the other way, or a change in a side signal; inactive = no such curve, though single readings can be large or run the other way; the % refers to the signal ratio.
Classes to choose from: active, inactive

• CC(C)(C)C(=O)[C@@H](Oc1ccc(Cl)cc1)n1cncn1 = inactive

Could you check what this test reported for CCOP(=S)(NC(C)C)Oc1ccccc1C(=O)OC(C)C (stereo unspecified) ? inactive

Please indicate how the test categorized Oc1ccc(C2(c3ccc(O)cc3)c3ccccc3-c3ccccc32)cc1 . active

Returns: the outcome recorded for CC(C)(C)N(NC(=O)c1ccc(Cl)cc1)C(=O)c1ccccc1 in this assay. inactive

Status in this test for O=Nc1ccc(Nc2ccccc2)cc1 ? active

Dear colleague, could you share the recorded outcome for COc1ccc(C(O)(c2cncnc2)C2CC2)cc1 (stereo unspecified) when you have a moment? inactive

* * *

System: ATS189
protocol.details: qHTS profiling for inhibitors of Plasmodium falciparum proliferation (AID 504749); note: nearly all actives have a fitted effect of over 60% in size
measurement.setup: P. falciparum in erythrocytes, SYBR Green DNA, 72 h; series mostly up to 28.7 µM
Records with an inconclusive call do not appear. Active and inactive are the calls of the source. Calls come from the whole dose curve; as a rule, active = well fitted inhibition curve with a large enough effect; inconclusive = small, poorly fitted or top-dose-only effect; inactive = flat fitted curve, though single readings scatter.
Your response should consist of one outcome taken from t = active, f = inactive

Study these solved cases before continuing.
• C[C@@H]1CC[C@H]2[C@@H](C)C(=O)O[C@@H]3OC4(C)CC[C@@H]1C32OO4 (stereo not given in full) = t
• C[C@]12C=CC(=O)C=C1CC[C@@H]1C2CC[C@]2(C)OC(=O)CCC12 (stereo not given in full) = f
• CC(C)CCC(=O)OC1CCC2C3CCC4=CC(=O)CC[C@]4(C)C3CC[C@]12C (stereo not given in full) = t
• CCCCCc1cc(O)c2c(c1)OC(C)(C)C1CC=C(C)CC21 (stereo not given) = t

Now for another entry.
What outcome does the record of this test show for CC1CC[C@@]2(NC1)OC1CC3C4CC[C@@H]5CC(O)CC[C@@]5(C)C4CC[C@]3(C)C1C2C (stereo not given in full) ? f

* * *

experimental.system: Peroxisome proliferator-activated receptor delta (Homo sapiens) (UniProt Q03181)
Sequence (Q03181 whole entry, looked up): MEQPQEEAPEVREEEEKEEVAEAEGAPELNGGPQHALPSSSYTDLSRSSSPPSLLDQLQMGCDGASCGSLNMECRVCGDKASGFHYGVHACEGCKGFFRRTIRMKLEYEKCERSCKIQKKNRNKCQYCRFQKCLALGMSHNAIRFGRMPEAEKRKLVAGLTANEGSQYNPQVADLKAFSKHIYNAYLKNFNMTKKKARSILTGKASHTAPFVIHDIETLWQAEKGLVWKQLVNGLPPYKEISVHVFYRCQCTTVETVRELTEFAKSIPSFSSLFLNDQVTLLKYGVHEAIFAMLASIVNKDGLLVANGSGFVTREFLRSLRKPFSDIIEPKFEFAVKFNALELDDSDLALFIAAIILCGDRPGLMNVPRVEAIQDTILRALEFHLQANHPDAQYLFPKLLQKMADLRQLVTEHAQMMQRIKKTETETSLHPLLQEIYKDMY
protocol.details: qHTS assay for small molecule agonists of peroxisome proliferator-activated receptor delta signaling (AID 588534)
measurement.setup: HEK293T PPARdelta-UAS-bla, beta-lactamase ratio, 18 h; series mostly up to 76.7 µM
Inconclusive results are not listed. Activity calls are given as the source filed them. Calls follow the shape of the full dose curve.
experimental.readout: outcome

- C[C@]12CC[C@@H]3c4ccc(O)cc4CC[C@H]3[C@@H]1CC[C@H]2O: inactive
- O=c1oc(=O)c2cc3c(=O)oc(=O)c3cc12: inactive
- CC(=O)c1ccc([N+](=O)[O-])cc1: inactive
- CCCCN(CCCC)CCCCCCN(CCCC)CCCC: inactive
- O=C1OC(=O)c2cc([N+](=O)[O-])ccc21: inactive
- CCO[Si](CCCN)(OCC)OCC: inactive
- CCOP(=O)(NC(C)C)Oc1ccc(S(C)(=O)=O)c(C)c1 (centres undefined): inactive
- CN(C)CCOCCN(C)C: inactive
- CCC[CH2][Sn](=[O])[CH2]CCC: inactive
- Nc1ccc([N+](=O)[O-])cc1Cl: inactive

List the reported outcome of each molecule below.
1. c1cnc2c(c1)ccc1cccnc12
2. CCNc1cc(O)ccc1C
3. COC(OC)(C(=O)c1ccccc1)c1ccccc1
4. Clc1ccc([C@]2(Cn3cncn3)C[C@@H](Br)CO2)c(Cl)c1
5. CCCOCC(C)OCC(C)O (centres undefined)

["inactive", "inactive", "inactive", "inactive", "inactive"]

Each molecule below has a reported value. Please supply its outcome.
1. O=Cc1c(Cl)cccc1Cl
2. CCOC1Oc2ccc(OS(C)(=O)=O)cc2C1(C)C (centres undefined)
3. O=[N+]([O-])c1cc(Cl)c(Cl)c(Cl)c1Cl
4. Clc1cc(Cl)cc(Cl)c1
5. CCOc1ccc(C(C)(C)COCc2cccc(Oc3ccccc3)c2)cc1

["inactive", "inactive", "inactive", "inactive", "inactive"]

For each of the items listed, what is its outcome?
1. COC(C)=O
2. CCC=O
3. CCCCC(CC)COP(=O)(OCC(CC)CCCC)OCC(CC)CCCC (centres undefined)
4. CC1(C)C(C(=O)OC(C#N)c2cccc(Oc3ccccc3)c2)C1(C)C (centres undefined)
5. CCOC(=O)Nc1cccc(OC(=O)Nc2ccccc2)c1
6. Nc1cc(Cl)c(N)c(Cl)c1

1. inactive
2. inactive
3. inactive
4. inactive
5. inactive
6. inactive
